These measurements were taken from patent US8080115B2.

Property: degreasing grade; scope: individual molecules
# run-description: Degreasing of steel sheets with an impregnated cotton pad
# Parameters: key: Grade=1: visible residual presence of a thin greasy film; Grade=2: visible residual presence of small greasy spots; Grade=3: visible absence of fatty substance (degreased sheet)
# measurement-conditions: FS 6 = polydimethylsiloxane oil
Just the number, please, no unit attached.

# molecule, degreasing grade
data = [
    ("CCOC(=O)C(C)O (centres unmarked) [Composition 4, ethyl lactate]", 3),
    ("ClC=C(Cl)Cl [Composition 1, trichloroethylene]", 3),
    ("CO[C@H]1CO[C@H]2[C@@H]1OC[C@H]2OC [Composition 5, dimethyl isosorbide]", 2),
]

Given item ClCCl [Composition 2, dichloromethane] , the value recorded as its degreasing grade is 3

Given item C=C(C)[C@H]1CC=C(C)CC1 [Composition 3, dipentene] , the value recorded as its degreasing grade is 3
